- System: MILI (PIWIL2) piRISC loaded with L1MC piRNA (26 nt);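 note: 1 nM active piRISC with 0.1 nM target library at 33 °C single turnover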
- assay_text: pre-steady-state target cleavage rate (min^-1); guide: L1MC piRNA 5'p-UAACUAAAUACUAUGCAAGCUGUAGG; MIWI and MILI are mouse PIWI proteins and EfPiwi is from a freshwater sponge; tags in brackets are library labels; higher = faster piRNA-guided slicing of the target
- applied_conditions: auxiliary factor: none (no GTSF1)
endpoint_name: pre-steady-state target cleavage rate

{"biopolymer_sequence": "UCCUGGAUGUCGAACGUAAGUAAUUAGUUA", "result_qualifier": "<", "endpoint_value": 0.0001}
{"biopolymer_sequence": "UCCUGGAUGUCGAACCAUACUAUUAAGUUA", "result_qualifier": "<", "endpoint_value": 0.0001}
{"biopolymer_sequence": "UCCUGGAUGUCGAACCAUUCUAUUUAGUUA", "result_qualifier": "<", "endpoint_value": 0.0001}
{"biopolymer_sequence": "UCCUGGUACAGCAUGCAUAGUAAUUAGUUA", "result_qualifier": "=", "endpoint_value": 0.013}
{"biopolymer_sequence": "UCCUCCUACAGCUUGCAGAGUAUUUAGUUA", "result_qualifier": "=", "endpoint_value": 0.00823}
{"biopolymer_sequence": "UCCUGGAUCAGCUUGAAUAGUAUUUAGUUA", "result_qualifier": "=", "endpoint_value": 0.00991}
{"biopolymer_sequence": "UCCUGGAUGAGGUUGCAUAGUUUUUAGUUA", "result_qualifier": "=", "endpoint_value": 0.00583}
{"biopolymer_sequence": "UCCUGGUACAGCUUGCCAUAGUAUUUAGUUA", "result_qualifier": "=", "endpoint_value": 0.00532}
{"biopolymer_sequence": "UCCUGGAUGAGCUUGCAUUGUAUUUAGUUA", "result_qualifier": "=", "endpoint_value": 0.00846}
{"biopolymer_sequence": "UCCUGGUACAGCUACCAUAGUAUUUAGUAA", "result_qualifier": "=", "endpoint_value": 0.00528}
{"biopolymer_sequence": "UCCUGGAUCAGCUUGCAUAGUAUUUAUUUA", "result_qualifier": "=", "endpoint_value": 0.00658}
{"biopolymer_sequence": "UCCUCCUACAGCUUGCAUAGUAUUUAGUUU [g2:g26:cont:t1U]", "result_qualifier": "=", "endpoint_value": 0.0339}
{"biopolymer_sequence": "UCCUGGUACAGCUUGCAUAGUAUUUUGUUA", "result_qualifier": "=", "endpoint_value": 0.00398}
{"biopolymer_sequence": "UCCUGGAUCAGCUUGCAUAGUAUUUAGUUU [g2:g22:cont:t1U]", "result_qualifier": "=", "endpoint_value": 0.0189}
{"biopolymer_sequence": "UCCUGGAUGUCGAACGUUAGAUUUUAGUUA", "result_qualifier": "<", "endpoint_value": 0.0001}
{"biopolymer_sequence": "UCCUGGAACAGCUUGAUAGUAUUUAGUUA", "result_qualifier": "=", "endpoint_value": 0.00612}
{"biopolymer_sequence": "UCCUGGAUGUGGAAGCAUAGUAUUUAGUUA", "result_qualifier": "=", "endpoint_value": 0.00344}
{"biopolymer_sequence": "UCCUGGUACAGCUUGCAAAGUUUUUAGUUA", "result_qualifier": "=", "endpoint_value": 0.00339}
{"biopolymer_sequence": "UCCUGGAUCAGCUUGCUAGUAUUUAGUUA", "result_qualifier": "=", "endpoint_value": 0.00365}
{"biopolymer_sequence": "UCCUGGAUGUCGAACGUAUGUAUUUAGUA", "result_qualifier": "<", "endpoint_value": 0.0001}
{"biopolymer_sequence": "UCCUGGAUGUCGAUCCAUAGUAUUUUGUUA", "result_qualifier": "<", "endpoint_value": 0.0001}
{"biopolymer_sequence": "UCCUGGAAGAGCUUGCAUACUAUUUAGUUA", "result_qualifier": "=", "endpoint_value": 0.00312}
{"biopolymer_sequence": "UCCUGCUACACGAUGCAUAGUAUUUAGUAA", "result_qualifier": "=", "endpoint_value": 0.00703}
{"biopolymer_sequence": "UCCUGGAUGUCGAACGAUAGUAUAUUAGUUA", "result_qualifier": "<", "endpoint_value": 0.0001}
{"biopolymer_sequence": "UCCUCCUACAGCUUGCAUUGUAUUUACUUA", "result_qualifier": "=", "endpoint_value": 0.00286}
{"biopolymer_sequence": "UCCUGGAUCAGCUUCCUUAGUAUUUAGUUA", "result_qualifier": "=", "endpoint_value": 0.00478}
{"biopolymer_sequence": "UCCUGGAUGUGCUUGCAUAGUUUUUAGUUA", "result_qualifier": "=", "endpoint_value": 0.00796}
{"biopolymer_sequence": "UCCUCCUACAGCAUGCAUAGUUUUUAGUUA", "result_qualifier": "=", "endpoint_value": 0.00447}
{"biopolymer_sequence": "UCCUGGAUGUCGAACCAUAGUCAUUUAGUUA", "result_qualifier": "<", "endpoint_value": 0.0001}
{"biopolymer_sequence": "UCCUGGUACAGUCUUGCAUAGUAUUUAGUUA", "result_qualifier": "=", "endpoint_value": 0.0122}
{"biopolymer_sequence": "UCCUCCUACUGCUUGCAUAGUUUUUAGUUA", "result_qualifier": "=", "endpoint_value": 0.00424}
{"biopolymer_sequence": "UCCUGGAUGAGCUUGGAUAGUAUUUAGUUA", "result_qualifier": "=", "endpoint_value": 0.00612}
{"biopolymer_sequence": "UCCUCCUACAGCUUGGAAAGUAUUUAGUUA", "result_qualifier": "=", "endpoint_value": 0.00715}
{"biopolymer_sequence": "UCCUGGUACAGACUUGCAUAGUAUUUAGUUA", "result_qualifier": "=", "endpoint_value": 0.00755}
{"biopolymer_sequence": "UCCUGGAUGUCGAACCAUAGUAUUGAGUUA", "result_qualifier": "<", "endpoint_value": 0.0001}
{"biopolymer_sequence": "UCCUGGAUGUCGUUAGCAUAGUAUUUAGUUA", "result_qualifier": "=", "endpoint_value": 0.00456}
{"biopolymer_sequence": "UCCUGGAACAGCAUGGAUAGUAUUUAGUUA", "result_qualifier": "=", "endpoint_value": 0.00742}
{"biopolymer_sequence": "UCCUGCUGCAGCUUGCAUAGUAUUUAGUUA", "result_qualifier": "=", "endpoint_value": 0.00762}
{"biopolymer_sequence": "UCCUGGAUGUCGAACCAUAGUAUGUUAGUUA", "result_qualifier": "<", "endpoint_value": 0.0001}
{"biopolymer_sequence": "UCCUGGAACAGCUUCGCAUAGUAUUUAGUUA", "result_qualifier": "=", "endpoint_value": 0.00647}
{"biopolymer_sequence": "UCCUGGAUGUCGAACGUAUGAAUUUUGUUA", "result_qualifier": "<", "endpoint_value": 0.0001}
{"biopolymer_sequence": "UCCUCCUACAGCUUGGAUAGUAUUUAGUAA", "result_qualifier": "=", "endpoint_value": 0.00459}
{"biopolymer_sequence": "UCCUGGUACAGCUUGCAAAGUAUUUAGUUA", "result_qualifier": "=", "endpoint_value": 0.00987}
{"biopolymer_sequence": "UCCUGGAUGUGCUUGGAUAGUAUUUAGUUA", "result_qualifier": "=", "endpoint_value": 0.00702}
